Tested on: house fly (Musca domestica)
Assay: Effect of the active ingredient:synergist ratio on the synergistic activity (flies)
Details: carbofuran 20 ng/fly + synergist 80 ng/fly
So I've got a bunch of compounds here, and I need their 24 hour mortality (%) values.
One number for each entry, in %.

Check out these entries, answers already filled in.
CC#CCOCc1ccc(OC)c(OC)c1 [Compound 493] :: 75
CC#CCOCc1ccc2c(c1)OCO2 [Compound 441] :: 62
CC#CCOCc1c(Cl)cccc1Cl [Compound 503] :: 37
C#CCOC(=O)c1ccc2c(c1)OCO2 [Compound 501, 2-Propynyl 1,3-benzodioxol-5-carboxylate] :: 60
CC#CCO[C@H](C)c1ccc2ccccc2c1 [Compound 455] :: 25

The following compounds each have a reported value; give each one's 24 hour mortality (%).
1. CC#CCOC(CC)c1cccc2ccccc12 (stereo not shown) [Compound 454, 1-[1-(2-butynyloxy)-propyl]-naphthalene]
2. CC#CCOC(C)c1ccc(OC)c(OC)c1 (stereo not shown) [Compound 599]

1: 40; 2: 65

* * *

Tested on: house fly (Musca domestica)
Experiment: Effect of the active ingredient:synergist ratio on the synergistic activity (flies)
Conditions: carbofuran 20 ng/fly + synergist 400 ng/fly
Readout name: 24 hour mortality (%)
Report as: number unit

CC#CCO[C@H](C)c1ccc2ccccc2c1 :: 63%

Lab note: each molecule below needs its 24 hour mortality (%) filled in.
1. C#CCOC(=O)c1ccc2c(c1)OCO2 [Compound 501, 2-Propynyl 1,3-benzodioxol-5-carboxylate]
2. CC#CCOC(C)c1ccc(OC)c(OC)c1 (stereo not shown)
3. CC#CCOC(CC)c1cccc2ccccc12 (stereo not shown) [Compound 454, 1-[1-(2-butynyloxy)-propyl]-naphthalene]
4. CC#CCOCc1ccc2c(c1)OCO2
5. CC#CCOCc1ccc(OC)c(OC)c1
6. CC#CCOCc1c(Cl)cccc1Cl

1: 80%; 2: 95%; 3: 60%; 4: 90%; 5: 94%; 6: 65%

* * *

Test system: house fly (Musca domestica)
Assay: Effect of the active ingredient:synergist ratio on the synergistic activity (flies)
Conditions: carbofuran 20 ng/fly + synergist 200 ng/fly
Binary classification by 24 hour mortality (%), with 50% as an inclusive lower bound for Fulfilled; all other cases are Not fulfilled.

CC#CCO[C@H](C)c1ccc2ccccc2c1 [Compound 455] :: Not fulfilled
C#CCOC(=O)c1ccc2c(c1)OCO2 [Compound 501, 2-Propynyl 1,3-benzodioxol-5-carboxylate] :: Fulfilled

Reported 24 hour mortality (%) at or above 50%? CC#CCOC(CC)c1cccc2ccccc12 (stereo not drawn) [Compound 454, 1-[1-(2-butynyloxy)-propyl]-naphthalene] Not fulfilled

Could you please find out whether CC#CCOCc1ccc2c(c1)OCO2 [Compound 441] has 24 hour mortality (%) that meets 50% or exceeds it? Fulfilled

Quick check: does CC#CCOCc1ccc(OC)c(OC)c1 [Compound 493] have 24 hour mortality (%) greater than or equal to 50%? Fulfilled

* * *

Test system: flies
Test: Comparative investigations with known reference synergists on flies treated with carbofuran
Assay type: in vivo
Conditions: flies treated with carbofuran and 1000 ng of the synergist
Readout name: Synergist ratio SR50
One number for each entry.

Take a look at these entries with their results.
CC#CCCOc1cccc2c1OC(C)(C)C2 :: 20.5
C#CCOCc1cccc2ccccc12 :: 5.28
CC#CCON=C(C)c1cccc2ccccc12 :: 10.02
C#CCCOc1cccc2ccccc12 :: 7.95

// for each molecule in input: emit Synergist ratio SR50
1. CC#CCOCc1cccc2ccccc12
2. C#CCOCC1COc2ccccc2O1 (centres unmarked)
3. CC#CCOCc1c(Cl)cccc1Cl
4. C#CCOC(=O)c1cccc2ccccc12 [2-propynyll-naphthyl-carboxylate]
5. CC#CCOC(=O)c1ccc2c(c1)OCO2 [Compound 502, 2-Butynyl 1,3-benzodioxol-5-carboxylate]
6. CC#CCOCc1ccc(OC)c(OC)c1

[28.7, 5.58, 21.16, 4.11, 6.28, 32.84]

* * *

Test system: resistant house fly, IX strain
Experiment: Synergistic activity on resistant house fly, IX strain
Format: in vivo, Musca domestica
Settings: active ingredient alone
Readout name: LD50

Consider the worked cases shown below.
CNC(=O)Oc1cccc2c1OC(C)(C)C2 [CARBOFURAN, reference compound] :: > 100000 ng/fly
Cc1nc(N(C)C)nc(OC(=O)N(C)C)c1C [PIRIMICARB, reference compound] :: > 100000 ng/fly

Give reported LD50 for CNC(=O)Oc1ccccc1C(C)C [ISOPROCARB, reference compound] (resistant house fly, IX strain) > 100000 ng/fly

* * *

Provide the reported mortality % of each item.
System: house fly (Musca domestica)
Settings: in vivo, topical_or_ocular, 1440 min
Give bare numbers, in %.

In the examples that follow, each entry is paired with its recorded mortality %.
CC#CCOCc1cccc2ccccc12 :: 72
C#CCCOc1ccc([N+](=O)[O-])cc1 :: 47
CC#CCO[C@@H](C)c1cccc2ccccc12 :: 62
CC#CCOCC1Cc2ccccc2O1 (stereo not drawn) :: 48
CC#CCOC1CCCc2ccccc21 (stereo not drawn) :: 70
C#CCN(C)C(C)c1ccc2ccccc2c1 (stereo not drawn) :: 37
C#CCO[C@H](C)c1ccc2ccccc2c1 :: 47
CC#CCOC(c1cccc2ccccc12)C(C)C (stereo not drawn) :: 68

Record mortality % per entry; entries follow.
1. CC#CCCOc1cccc2c1OC(C)(C)C2
2. C#CCCOc1cccc2c1OC(C)(C)C2
3. CC#CCON=C(C)c1cccc2ccccc12
4. CC#CCOCc1ccc2c(c1)OCO2
5. CC#CCOC(=O)c1ccc2c(c1)OCO2 [Compound 502, 2-Butynyl 1,3-benzodioxol-5-carboxylate]
6. CC#CCOCc1c(Cl)cccc1Cl

[63, 57, 53, 97, 47, 95]

State mortality % (house fly (Musca domestica)) of CC#CCOCc1ccc(OC)c(OC)c1 . 100

* * *

Tested on: flies
Assay: Comparative investigations with known reference synergists on flies treated with carbofuran
Type: in vivo
Conditions: flies treated with carbofuran and 1000 ng of the synergist
Excerpt: These SR50 ratios were compared to those of the new compounds prepared by us.
Please note: label 1 applies when Synergist ratio SR50 is 20 or greater, and label 0 applies otherwise.

Would you please look over these solved cases?
C#CCOc1cccc2ccccc12 :: label 0
C#CCOCc1ccc(OC)c(OC)c1 :: label 0
CC#CCCOc1ccc2ccccc2c1 :: label 0
CC#CCOCc1ccc2c(c1)OCO2 :: label 1
CC#CCOCC1COc2ccccc2O1 (stereo not shown) :: label 0

Test whether the molecule C#CCOCc1c(Cl)cccc1Cl records Synergist ratio SR50 of 20 or higher. label 1

Synergist ratio SR50 >= 20 for CC#CCOc1ccc2ccccc2c1 ? label 0
